B1: H2-Kb / Ed46 (parent complex)
chain 1: AQSVTQPDARVTVSEGASLQLRCKYSYFGTPYLFWYVQYPRQGLQLLLKYYPGDPVVQGVNGFEAEFSKSNSSFHLRKASVHWSDWAVYFCAVGRTGGYKVVFGSGTRLLVSP
chain 2: DSGVVQSPRHIIKEKGGRSVLTCIPISGHSNVVWYQQTLGKELKFLIQHYEKVERDKGFLPSRFSVQQFDDYHSEMNMSALELEDSAMYFCASSPRHSDYTFGSGTRLLVI
chain 3: not shown
chain 4: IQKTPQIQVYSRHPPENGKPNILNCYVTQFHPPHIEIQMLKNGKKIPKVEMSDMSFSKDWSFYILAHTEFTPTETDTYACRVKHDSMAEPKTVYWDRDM
chain 5: SIINFEKL

- Variants of: B1
- assay.remarks: % of reporter cells activated (NFAT-GFP), raw; note: test concentration or dose not given here
recorded.metric: ratio to parent

| variant.label | ratio to parent |
| --- | --- |
| chain 5 E6F | 0.0998 |
| chain 5 I3T | 0.301 |

a. chain 5 L8Q
b. chain 5 K7Q
c. chain 5 K7Y
d. chain 5 I3R
Task item: Sort by ratio to parent, descending. Sort and list the labels as requested.
Reply: a, c, d, b

A. chain 5 F5M
B. chain 5 K7M
Task item: Sort A and B by ratio to parent descending and give the first. Let me know the label of the one you choose.
Reply: A

P. chain 5 I2C
Q. chain 5 N4K
Task item: Just tell me: smaller ratio to parent value, P or Q ? I would appreciate it if you answered with the label of your choice.
Reply: Q

Values were extracted from paper PMC11480844.
